Target: recombinant homotrimeric HA A/Hong Kong/2108/03 H9N2 (Influenza A virus A/HK/2108/2003(H9N2))
Test: protein microarray, purified IgG, trimeric HA
Settings: remark: other sources report otherwise
Assay Metric: Trimeric HA Binding: RLU
Could you write the number and then its unit?

Entry TCN-555 (5246_L16) (antibody, V domains shown) VH: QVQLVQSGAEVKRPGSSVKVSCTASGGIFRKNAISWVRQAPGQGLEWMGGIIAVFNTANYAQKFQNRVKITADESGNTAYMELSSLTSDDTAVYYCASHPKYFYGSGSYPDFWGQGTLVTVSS VL: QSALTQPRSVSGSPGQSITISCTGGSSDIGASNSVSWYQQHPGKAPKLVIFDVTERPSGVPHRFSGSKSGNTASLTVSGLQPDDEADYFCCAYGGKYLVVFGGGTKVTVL : reported Trimeric HA Binding: RLU = ?
302 RLU

Look at this binder and give its reported Trimeric HA Binding: RLU. TCN-538 (3206_O17) (antibody, V domains shown) VH: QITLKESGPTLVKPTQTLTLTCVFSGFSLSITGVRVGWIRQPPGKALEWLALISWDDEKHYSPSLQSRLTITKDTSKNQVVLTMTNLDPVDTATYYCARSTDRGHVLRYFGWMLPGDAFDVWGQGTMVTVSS VL: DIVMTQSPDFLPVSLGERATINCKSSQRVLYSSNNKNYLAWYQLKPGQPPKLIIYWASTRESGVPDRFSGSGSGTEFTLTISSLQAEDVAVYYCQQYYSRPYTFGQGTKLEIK
172 RLU

Which Trimeric HA Binding: RLU reading was recorded for the binder TCN-534 (5249_B02) (antibody, V domains shown) VH: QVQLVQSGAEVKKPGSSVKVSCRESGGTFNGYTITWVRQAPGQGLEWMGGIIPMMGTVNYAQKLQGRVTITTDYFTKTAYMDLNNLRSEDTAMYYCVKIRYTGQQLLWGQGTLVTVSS VL: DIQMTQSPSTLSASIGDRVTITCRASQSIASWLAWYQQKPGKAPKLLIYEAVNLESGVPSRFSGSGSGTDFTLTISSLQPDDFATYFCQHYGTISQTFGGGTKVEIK ?
172 RLU

The measured values listed here are drawn from patent US20150086555A1.
